Can you tell me fluorescence slope for the items I'm about to list?
target: Muscarinic acetylcholine receptor M4 (Homo sapiens); assay: compounds altering M4/GIRK thallium flux, either direction, primary screen, M4 allosteric agonist project, cell-based, HEK293 M4/GIRK, BTC-AM (AID 625); conditions: at 10 µM, actives lie on both sides;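 note: thallium influx through GIRK channels coupled to M4 in HEK293 cells with BTC-AM dye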
Kindly provide the number alone.

q: Complete the entry with fluorescence slope for C=C(C)CSc1nc(N)c2c3c(sc2n1)CCC3
a: 0.00788

q: Complete the entry with fluorescence slope for CCOc1ccc(C2CC(c3ccccc3)Nc3nc(N)nn32)cc1 (centres undefined)
a: 0.00481

q: Complete the entry with fluorescence slope for Cc1ccccc1N1C(=O)C2ON(c3ccccc3)C(c3cccnc3)C2C1=O (centres undefined)
a: 0.00555

q: Complete the entry with fluorescence slope for Cc1cc(=O)oc2c(CN3CCCCC3)c(O)c(Cl)cc12
a: 0.0046

====

Can you tell me cell count for the items I'm about to list?
test: inhibitors of TNFa-induced NFkB p65 translocation, primary screen, imaging, HUVEC, MLSMR starter and 10KST1 sets (AID 438); conditions: HUVEC TNFa-induced p65 nuclear translocation; measured here: nuclei count (cytotoxicity indicator), at 2.08 µM;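 note: compound added about 3h40 before a 20 min TNFalpha stimulation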
Kindly provide the number alone.

q: Complete the entry with cell count for COc1ccc(Cc2noc(-c3ccc(C)cc3)n2)cc1
a: 488

q: Complete the entry with cell count for COCCCN1C(=O)C(=O)/C(=C(/O)c2ccc(OCC(C)C)cc2C)C1c1cccnc1 (configuration not stated)
a: 299

q: Complete the entry with cell count for C=CCNS(=O)(=O)c1ccc2nsnc2c1
a: 383

q: Complete the entry with cell count for Cc1nn(CC(=O)N2CCOCC2)c(=O)c2ccccc12
a: 584

q: Complete the entry with cell count for CCOC(=O)N1CCN(C(=O)CSCC(=O)Nc2nc(-c3ccc(OC)cc3)cs2)CC1
a: 450

q: Complete the entry with cell count for COc1ccc(-c2nnc(SCC(=O)Nc3sc4c(c3C#N)CCC4)n2CC2CCCO2)cc1 (configuration not stated)
a: 846

q: Complete the entry with cell count for CCOc1ccc(NC(=O)CN(c2cc(C)cc(C)c2)S(=O)(=O)c2c(C)noc2C)cc1
a: 785

q: Complete the entry with cell count for O=C(Nc1ccccc1-c1ccccc1)NC1CCN(C(=O)N2CCOCC2)CC1
a: 497

q: Complete the entry with cell count for CC(C)OC(=O)c1c2nc3ccccc3nc2n2c1[nH]c(=O)c1ccccc12
a: 519

q: Complete the entry with cell count for COc1cccc(C(=O)NC2=NCCS2)c1
a: 400

q: Complete the entry with cell count for O=C(NCC(F)(F)F)Nc1nnc(C(F)(F)F)s1
a: 731

q: Complete the entry with cell count for CC(C)(C)C1=Nn2c(nnc2C2CCCCC2)SC1
a: 802

q: Complete the entry with cell count for CC(NC(=O)NCc1cccnc1)(C(F)(F)F)C(F)(F)F
a: 708

q: Complete the entry with cell count for Cn1c(SCCN2CCCCC2)nnc1-c1ccccc1Br
a: 493

q: Complete the entry with cell count for COc1ccc(C(=O)Nc2ccccc2N2CCOCC2)cc1Br
a: 522

q: Complete the entry with cell count for CC(C)(C)C(=O)CNS(=O)(=O)c1ccc(S(=O)(=O)NC2CCCC2)cc1
a: 479

q: Complete the entry with cell count for CCOC(=O)N1CCN(C(=O)c2cccn3c(=O)c4sccc4nc23)CC1
a: 502

q: Complete the entry with cell count for O=C(NC1CCCc2ccccc21)c1ccc(CNc2c(N3CCOCC3)c(=O)c2=O)cc1 (configuration not stated)
a: 644

q: Complete the entry with cell count for COc1ccc2nc(/N=C(\N)NC(=O)C(C)(C)C)nc(C)c2c1
a: 503

q: Complete the entry with cell count for CCOc1ccc(C2C=C(c3ccccc3)Nc3ncnn32)cc1 (configuration not stated)
a: 531

q: Complete the entry with cell count for COc1cc(OC)c2c(c1)OC(c1ccc(OC)c(OC)c1)C(O)C2=O (configuration not stated)
a: 524

q: Complete the entry with cell count for CCOc1ccc(C2CC(=O)NC3=C2C(=O)CCC3)cc1Cl (configuration not stated)
a: 481

q: Complete the entry with cell count for CSc1nc2c(c(=O)n1C)SC(C)C2 (configuration not stated)
a: 612

q: Complete the entry with cell count for COc1cccc(CNc2ncc(Br)cc2Br)c1O
a: 474

q: Complete the entry with cell count for Cn1cc(Cl)nc1C(O)c1ccccc1 (configuration not stated)
a: 629

q: Complete the entry with cell count for Cc1cccc(-c2nc(C#N)c(NC3CCCCC3)o2)c1
a: 373

q: Complete the entry with cell count for CN1CCc2c(C#N)c(N3CCCCC3)nc(NCc3ccccc3)c2C1
a: 577

q: Complete the entry with cell count for Cc1ccccc1OCC(O)CN (configuration not stated)
a: 298

q: Complete the entry with cell count for OC1(C2(O)CC(c3ccccc3)ON2)CCCCC1 (configuration not stated)
a: 713

q: Complete the entry with cell count for Cc1ccc(-c2ccc(SCC(=O)Nc3nonc3C)nn2)cc1
a: 413

q: Complete the entry with cell count for N#Cc1c(NCCCO)nc(-c2ccccc2)c2c1CCCC2
a: 598

q: Complete the entry with cell count for CCOCCCNC(=O)CN1CCN(Cc2ccccc2C)C1=O
a: 600

====

experiment: inhibitors of poly I:C-induced TLR3 signaling, primary screen, cell-based, poly I:C stimulus, luciferase, 10K MLSCN set (AID 602277); conditions: HEK293-TLR3 RL24 IRF3 luciferase reporter, at 10 µM, stronger effect = higher value
Can you tell me inhibition for the items I'm about to list?
Give the value, in units of %, as a plain number.

q: Complete the entry with inhibition for CCOC(=O)CSc1nnc2n1C(C)(C)Cc1ccccc1-2
a: -27.1

q: Complete the entry with inhibition for O=C(CN1C(=O)COc2ccccc21)N(Cc1cccnc1)Cc1ccccc1F
a: 32.6

q: Complete the entry with inhibition for COc1cc2c(cc1OC)-c1cc(Nc3ccc4c(c3)OCCO4)nc(=O)n1CC2
a: 44.1

q: Complete the entry with inhibition for O=C(O)C1CC=CCC1C(=O)Nc1ccc(S(=O)(=O)N2CCCc3ccccc32)cc1 (stereo not given)
a: -62.7

q: Complete the entry with inhibition for CC(c1ccccc1)n1cnc2ccccc21 (stereo not given)
a: 19

====

test: inhibitors of E-selectin induction by TNFa, primary screen, imaging, HUVEC, immunofluorescence, MLSMR starter and 10KST1 sets (AID 487); details: HUVEC TNFalpha-induced E-selectin immunofluorescence imaging, at 2 µM; stronger effect = higher value;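 note: signal is fraction of cell area covered by stained E-selectin grains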
Please mark y if the recorded inhibition is equal to or greater than -20%, and n if it falls below.

q: Has CCOC(=O)C1CCN(c2nc3ccccc3nc2C(C#N)C(=O)OC(C)COC)CC1 (stereo unspecified) a recorded inhibition greater than or equal to -20%?
a: y

q: Has Cc1ccc(-c2nc(=S)c3c(n2Cc2ccco2)CCCC3)cc1 a recorded inhibition greater than or equal to -20%?
a: n

q: Has C=CCn1c(=O)c(C(=O)NCCN(CC)CC)c(O)c2ccccc21 a recorded inhibition greater than or equal to -20%?
a: n

q: Has CCOc1ccc(NC(=O)c2nn(C)cc2Br)cc1 a recorded inhibition greater than or equal to -20%?
a: n

q: Has O=C(CCCn1c(=O)c2sccc2n(Cc2cc(=O)n3ccccc3n2)c1=O)NCc1ccco1 a recorded inhibition greater than or equal to -20%?
a: n

q: Has Cn1c(N)c(C#N)c(C#N)c1-c1ccccc1 a recorded inhibition greater than or equal to -20%?
a: n

q: Has O=C(CNC(=O)c1cc2ccccc2o1)NCc1cccs1 a recorded inhibition greater than or equal to -20%?
a: n

q: Has CC(=O)/C(C#N)=C1\NC(=O)C(Cc2ccccc2Cl)S1 (stereo unspecified) a recorded inhibition greater than or equal to -20%?
a: y

q: Has CCSc1nnc(NC(=O)NC(CC)(C(F)(F)F)C(F)(F)F)s1 a recorded inhibition greater than or equal to -20%?
a: n

q: Has CCN(CC)CCOC(=O)c1c(C)n(C)c2ccc(OC)cc12 a recorded inhibition greater than or equal to -20%?
a: n

q: Has c1ccc(-c2oc3ncnc(NCCN4CCOCC4)c3c2-c2ccccc2)cc1 a recorded inhibition greater than or equal to -20%?
a: n

q: Has CCCn1nc(CC(=O)O)c2ccccc2c1=O a recorded inhibition greater than or equal to -20%?
a: y

q: Has CCCSc1nnc(NC(=O)Nc2ccccc2)s1 a recorded inhibition greater than or equal to -20%?
a: n

q: Has Cc1nn2cnc3sc4c(c3c2nc1=O)CCCC4 a recorded inhibition greater than or equal to -20%?
a: n

q: Has C=CCOc1ccc(/C(O)=C2\C(=O)C(=O)N(CCN(C)C)C2c2cccs2)cc1 (stereo unspecified) a recorded inhibition greater than or equal to -20%?
a: y

q: Has CC(=O)Nn1c(C)nnc1-n1nc(C)cc1C a recorded inhibition greater than or equal to -20%?
a: n

q: Has CCCCCNc1nc(N2CCCC2)c2c(c1C#N)CCN(C)C2 a recorded inhibition greater than or equal to -20%?
a: n

q: Has COc1ccc(C2CC(=O)C3=C(C2)Nc2ccccc2N(C(=O)C2CC2)C3c2cccnc2)cc1OC (stereo unspecified) a recorded inhibition greater than or equal to -20%?
a: y

q: Has COC(=O)C(NC(=O)c1ccco1)(Nc1ccc(Br)cn1)C(F)(F)F (stereo unspecified) a recorded inhibition greater than or equal to -20%?
a: y

q: Has COc1ccc(NC(=O)c2c(C)cc(=O)oc2C)c(OC)c1 a recorded inhibition greater than or equal to -20%?
a: y

q: Has CCOC(=O)C(C)(C)Sc1nc2c(cnn2-c2ccc(C)cc2)c(=O)[nH]1 a recorded inhibition greater than or equal to -20%?
a: n

q: Has CCCc1cc(-n2ccnc2)n2c(nc3ccccc32)c1C#N a recorded inhibition greater than or equal to -20%?
a: y

q: Has C=CCOc1ccc(C2/C(=C(\O)c3c(C)[nH]c(C(=O)OC)c3C)C(=O)C(=O)N2CCN(C)C)cc1 (stereo unspecified) a recorded inhibition greater than or equal to -20%?
a: n

q: Has COC(=O)CC(C(=O)Nc1cc(C(=O)OC)cc(C(=O)OC)c1)N1CCN(C)CC1 (stereo unspecified) a recorded inhibition greater than or equal to -20%?
a: n

q: Has COc1ccc(C2C(C(=O)NCCN3CCOCC3)c3ccccc3C(=O)N2C2CCCCC2)cc1 (stereo unspecified) a recorded inhibition greater than or equal to -20%?
a: n

q: Has COc1ccc(OC)c(-c2cc(C(=O)NCc3cccs3)no2)c1 a recorded inhibition greater than or equal to -20%?
a: n

q: Has Cn1c(=O)c2c(nc(NCc3ccc4c(c3)OCO4)n2Cc2ccccc2)n(C)c1=O a recorded inhibition greater than or equal to -20%?
a: n

q: Has C=CCOc1ccc(C2/C(=C(\O)c3ccc(F)cc3)C(=O)C(=O)N2CCCN(C)C)cc1 (stereo unspecified) a recorded inhibition greater than or equal to -20%?
a: n

q: Has CCOC(=O)C(NC(=O)c1ccc(OC)cc1)(N1CCOCC1)C(F)(F)F (stereo unspecified) a recorded inhibition greater than or equal to -20%?
a: y
